Origin of the recorded values: PubChem BioAssay AID588757

Molecular target: Aurora kinase B (Homo sapiens)
Experiment: Aurora B kinase inhibition counter-screen, dose response, counter-screen for STK33 inhibitor project, biochemical, scintillation, dry powder (AID 588757)
Conditions: ATP at Km, gamma-32P-ATP, 40 min room temperature, P30 filtermat scintillation counting
The source made the active and inactive calls.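 How the source made its calls: active means compounds whose fitted half-maximal concentration is at most ten times their top valid tested dose; inconclusive means flat fit showing moderate inhibition, or poor fit quality; inactive means the rest.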
Below, each of the molecules is paired with its reported AC50 value.

smiles.data	target.desc	measured
Oc1ccc(Nc2nc(-c3ccccc3O)nc3ccccc23)cc1	Aurora kinase B (Homo sapiens)	142 nM
CCOc1ccccc1C(=O)Nc1cc(Cl)ccc1O	Aurora kinase B (Homo sapiens)	> 3000 nM (inactive)
O=C(Nc1ccccc1-c1ccccc1)c1ccc(Br)o1	Aurora kinase B (Homo sapiens)	1660 nM
CC(C)n1cnc2c(Nc3cccc(Cl)c3)nc(NCCO)nc21	Aurora kinase B (Homo sapiens)	1470 nM
Nc1nc(-c2cc(O)ccc2[N+](=O)[O-])cc(-c2ccccc2)c1[N+](=O)[O-]	Aurora kinase B (Homo sapiens)	12.6 nM

Return the recorded AC50 value; entry: Cc1ncc(/C=C2\C(=O)Nc3ccccc32)[nH]1
346 nM

Give the value of AC50 reported for the following: CCCn1c(NC(=O)c2cccc(S(=O)(=O)N3CCCC3)c2)nc2ccccc21
170 nM
